Can you tell me pIC50 for the items I'm about to list?
Biological target: HSV polymerase (Human herpesvirus 1)
Sequence (P04293 whole entry): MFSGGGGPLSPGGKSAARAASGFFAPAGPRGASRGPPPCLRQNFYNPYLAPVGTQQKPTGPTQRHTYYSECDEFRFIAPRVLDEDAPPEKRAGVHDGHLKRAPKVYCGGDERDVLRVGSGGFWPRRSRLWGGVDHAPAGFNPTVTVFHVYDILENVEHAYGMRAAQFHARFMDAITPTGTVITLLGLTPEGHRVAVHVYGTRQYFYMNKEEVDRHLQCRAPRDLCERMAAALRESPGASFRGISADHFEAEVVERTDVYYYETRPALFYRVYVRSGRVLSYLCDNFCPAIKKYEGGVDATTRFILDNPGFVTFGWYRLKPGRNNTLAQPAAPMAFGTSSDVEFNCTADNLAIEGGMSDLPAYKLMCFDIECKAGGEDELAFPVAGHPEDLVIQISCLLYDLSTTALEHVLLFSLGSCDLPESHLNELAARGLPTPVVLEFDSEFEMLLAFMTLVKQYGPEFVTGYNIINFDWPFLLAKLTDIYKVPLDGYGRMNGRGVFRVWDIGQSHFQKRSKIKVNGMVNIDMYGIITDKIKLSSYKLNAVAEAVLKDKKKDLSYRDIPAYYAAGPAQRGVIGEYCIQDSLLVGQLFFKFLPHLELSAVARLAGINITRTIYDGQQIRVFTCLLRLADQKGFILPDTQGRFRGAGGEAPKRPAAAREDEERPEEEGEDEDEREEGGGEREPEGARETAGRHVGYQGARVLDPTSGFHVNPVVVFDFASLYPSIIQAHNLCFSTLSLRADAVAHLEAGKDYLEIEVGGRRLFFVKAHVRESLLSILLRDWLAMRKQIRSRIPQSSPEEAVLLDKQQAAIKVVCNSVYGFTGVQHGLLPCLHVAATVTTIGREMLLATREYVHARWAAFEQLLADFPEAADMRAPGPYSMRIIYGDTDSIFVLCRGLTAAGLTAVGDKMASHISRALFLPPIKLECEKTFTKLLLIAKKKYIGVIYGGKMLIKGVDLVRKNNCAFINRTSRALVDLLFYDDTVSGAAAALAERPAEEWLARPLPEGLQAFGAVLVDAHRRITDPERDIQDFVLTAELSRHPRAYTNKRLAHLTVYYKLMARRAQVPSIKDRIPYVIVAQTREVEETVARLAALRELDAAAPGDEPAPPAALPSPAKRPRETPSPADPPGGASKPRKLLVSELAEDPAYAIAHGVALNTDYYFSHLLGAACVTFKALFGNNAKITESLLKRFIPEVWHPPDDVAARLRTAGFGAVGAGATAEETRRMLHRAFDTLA
Test: HSV polymerase assay (Table 1)
Assay type: biochemical
Conditions: HSV polymerase; read-out: Polymerase IC50 HSV
Please report pIC50 as the negative decimal logarithm of the molar concentration, giving only the number.

get_value(item= CN(Cc1cc2c(=O)c(C(=O)NCc3ccc(Cl)cc3)cn(C)c2s1)CC(O)c1ccc[nH]1 (racemic) [Example 7] , readout=pIC50) returns 6.01

The compound CN(Cc1cc2c(=O)c(C(=O)NCc3ccc(Cl)cc3)cn(C)c2s1)CC(O)c1csc2ccccc12 (racemic) [Example 13] showed pIC50 equal to 5.72

Form: compound = CN(Cc1cc2c(=O)c(C(=O)NCc3ccc(Cl)cc3)cn(C)c2s1)CC(O)c1cccs1 (racemic) [Example 6] ; pIC50 = 6.33

All figures here come from patent US20050049245A1.
